Source of measurements: patent US20040006236A1

Target: LFA-1 binding to immobilized ICAM-1 (Homo sapiens, UniProt P05107+P20701)
Construct: made in house; host or cells: transfected 293 cells (LFA-1)
Sequence (P20701 26-1170): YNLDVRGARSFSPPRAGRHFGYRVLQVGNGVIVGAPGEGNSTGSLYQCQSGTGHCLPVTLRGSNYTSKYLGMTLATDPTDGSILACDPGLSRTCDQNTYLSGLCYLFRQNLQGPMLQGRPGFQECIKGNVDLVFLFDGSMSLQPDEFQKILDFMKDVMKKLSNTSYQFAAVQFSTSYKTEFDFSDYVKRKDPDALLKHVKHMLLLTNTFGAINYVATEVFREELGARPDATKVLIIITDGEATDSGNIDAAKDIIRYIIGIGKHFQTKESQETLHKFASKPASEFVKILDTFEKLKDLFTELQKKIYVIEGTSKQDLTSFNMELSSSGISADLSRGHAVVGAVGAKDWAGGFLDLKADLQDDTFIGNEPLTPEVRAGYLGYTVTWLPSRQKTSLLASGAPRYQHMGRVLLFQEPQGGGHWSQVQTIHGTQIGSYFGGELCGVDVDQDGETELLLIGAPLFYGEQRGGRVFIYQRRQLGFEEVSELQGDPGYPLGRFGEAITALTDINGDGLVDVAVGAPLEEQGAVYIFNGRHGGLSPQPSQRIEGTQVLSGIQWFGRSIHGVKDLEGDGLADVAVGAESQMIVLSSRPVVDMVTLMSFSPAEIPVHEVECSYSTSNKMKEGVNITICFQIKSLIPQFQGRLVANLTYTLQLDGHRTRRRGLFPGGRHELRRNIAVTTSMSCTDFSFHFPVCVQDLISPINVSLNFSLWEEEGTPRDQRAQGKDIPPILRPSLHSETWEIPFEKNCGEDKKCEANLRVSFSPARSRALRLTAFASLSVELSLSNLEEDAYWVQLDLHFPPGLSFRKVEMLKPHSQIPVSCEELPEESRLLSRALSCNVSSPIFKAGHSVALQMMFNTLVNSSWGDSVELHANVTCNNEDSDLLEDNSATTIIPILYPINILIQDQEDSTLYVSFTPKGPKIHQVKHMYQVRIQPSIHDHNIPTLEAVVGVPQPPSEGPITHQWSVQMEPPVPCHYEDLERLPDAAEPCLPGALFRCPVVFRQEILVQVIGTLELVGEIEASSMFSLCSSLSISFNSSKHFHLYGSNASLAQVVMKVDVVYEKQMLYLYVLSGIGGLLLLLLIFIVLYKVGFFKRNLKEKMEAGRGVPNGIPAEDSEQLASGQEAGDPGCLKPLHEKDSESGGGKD
Sequence (P05107 23-769): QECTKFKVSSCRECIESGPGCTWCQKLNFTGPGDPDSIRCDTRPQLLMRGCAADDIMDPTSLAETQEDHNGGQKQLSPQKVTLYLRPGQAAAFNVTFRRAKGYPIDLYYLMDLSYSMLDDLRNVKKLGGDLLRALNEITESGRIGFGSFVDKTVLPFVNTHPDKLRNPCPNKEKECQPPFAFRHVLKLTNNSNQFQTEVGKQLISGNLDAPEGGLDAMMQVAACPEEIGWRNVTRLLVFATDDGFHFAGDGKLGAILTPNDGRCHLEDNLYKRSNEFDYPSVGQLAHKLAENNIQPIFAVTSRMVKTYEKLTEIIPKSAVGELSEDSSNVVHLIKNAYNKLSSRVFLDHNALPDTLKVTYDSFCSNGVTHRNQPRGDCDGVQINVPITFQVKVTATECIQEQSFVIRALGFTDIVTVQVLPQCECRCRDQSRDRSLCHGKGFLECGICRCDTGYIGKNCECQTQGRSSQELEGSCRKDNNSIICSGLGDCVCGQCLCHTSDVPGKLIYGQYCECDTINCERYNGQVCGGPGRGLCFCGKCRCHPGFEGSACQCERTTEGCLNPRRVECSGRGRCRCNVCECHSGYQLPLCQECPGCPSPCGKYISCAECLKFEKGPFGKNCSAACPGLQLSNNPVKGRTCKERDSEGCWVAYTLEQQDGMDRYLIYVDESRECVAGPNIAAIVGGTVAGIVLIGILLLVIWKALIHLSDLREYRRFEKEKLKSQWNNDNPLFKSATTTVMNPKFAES
Assay: LFA-1/ICAM-1 protein-protein assay (solid-phase ELISA)
Settings: read-out: LFA-1/ICAM-1 Protein-Protein Assay IC50
Rule: IC50 below 2 nM gives Satisfied. Equal to or above 2 nM gives Not satisfied.

{"COMPOUND": "Cc1cccc(C(=O)NC[C@H](NC(=O)c2ccc(C(=O)NCc3cccc(O)c3)cc2Cl)C(=O)O)c1", "CLASS_LABEL": "Satisfied"}
{"COMPOUND": "CC(=O)Nc1nc(C)c(S(=O)(=O)NC[C@H](NC(=O)c2ccc(C(=O)N[C@H](C)c3cccc4ccccc34)cc2Cl)C(=O)O)s1", "CLASS_LABEL": "Not satisfied"}
{"COMPOUND": "O=C(NCc1cccc(O)c1)c1ccc(C(=O)N[C@@H](CNC(=O)c2sccc2Br)C(=O)O)c(Cl)c1", "CLASS_LABEL": "Satisfied"}
{"COMPOUND": "Cc1cc(C(=O)N[C@H](C)c2cccc3ccccc23)ccc1C(=O)N[C@@H](CNC(=O)c1ccccc1)C(=O)O", "CLASS_LABEL": "Not satisfied"}
{"COMPOUND": "O=C(NCc1cccc2c1CCN2)c1ccc(C(=O)N[C@@H](CNC(=O)c2cccs2)C(=O)O)c(Cl)c1", "CLASS_LABEL": "Satisfied"}
{"COMPOUND": "O=C(NCc1cccc(O)c1)c1ccc(C(=O)N[C@@H](CNC(=O)c2nccnc2C(=O)Nc2ccc(Cl)cn2)C(=O)O)c(Cl)c1", "CLASS_LABEL": "Satisfied"}
{"COMPOUND": "O=C(NCc1cccc(O)c1)c1cc(Cl)c(C(=O)N[C@@H](CNC(=O)c2cccc(O)c2)C(=O)O)c(Cl)c1", "CLASS_LABEL": "Satisfied"}
{"COMPOUND": "N[C@H](Cc1ccc(O)cc1)C(=O)NC[C@H](NC(=O)c1ccc(C(=O)NCc2cccc(O)c2)cc1Cl)C(=O)O", "CLASS_LABEL": "Not satisfied"}
{"COMPOUND": "Cc1nnsc1C(=O)NC[C@H](NC(=O)c1ccc(C(=O)NCc2cccc(O)c2)cc1Cl)C(=O)O", "CLASS_LABEL": "Not satisfied"}
{"COMPOUND": "O=C(CSc1ccncc1)NC[C@H](NC(=O)c1ccc(C(=O)NCc2cccc(O)c2)cc1Cl)C(=O)O", "CLASS_LABEL": "Not satisfied"}
{"COMPOUND": "CCCCCOc1ccc(C(=O)NC[C@H](NC(=O)c2ccc(C(=O)NCc3cccc(O)c3)cc2Cl)C(=O)O)cc1", "CLASS_LABEL": "Not satisfied"}
{"COMPOUND": "O=C(Cc1cccc(C(F)(F)F)c1)NC[C@H](NC(=O)c1ccc(C(=O)NCc2cccc(O)c2)cc1Cl)C(=O)O", "CLASS_LABEL": "Not satisfied"}
{"COMPOUND": "COc1c(C(=O)NC[C@H](NC(=O)c2ccc(C(=O)NCc3cccc(O)c3)cc2Cl)C(=O)O)csc1Cl", "CLASS_LABEL": "Not satisfied"}
{"COMPOUND": "O=C(NCc1cccc(O)c1)c1ccc(C(=O)N[C@@H](CNC(=O)c2ccnc3ccccc23)C(=O)O)c(Cl)c1", "CLASS_LABEL": "Not satisfied"}
{"COMPOUND": "O=C(NCc1cccc(O)c1)c1ccc(C(=O)N[C@@H](CNC(=O)c2c3ccccc3cc3ccccc23)C(=O)O)c(Cl)c1", "CLASS_LABEL": "Not satisfied"}
{"COMPOUND": "Cc1ccc(C(=O)NC[C@H](NC(=O)c2ccc(C(=O)NCc3cccc(O)c3)cc2Cl)C(=O)O)s1", "CLASS_LABEL": "Satisfied"}
{"COMPOUND": "O=C(NCc1cccc(O)c1)c1ccc(C(=O)N[C@@H](CNC(=O)c2cccs2)C(=O)O)c(Cl)c1 [Example 303]", "CLASS_LABEL": "Satisfied"}
{"COMPOUND": "C[C@@H](NC(=O)c1cc(Cl)c(C(=O)N[C@@H](CNC(=O)c2cccs2)C(=O)O)c(Cl)c1)c1cccc2ccccc12", "CLASS_LABEL": "Not satisfied"}
{"COMPOUND": "O=C(NCc1cccc(O)c1)c1ccc(C(=O)N[C@@H](CNC(=O)c2ccco2)C(=O)O)c(Cl)c1", "CLASS_LABEL": "Satisfied"}
{"COMPOUND": "O=C(NCc1cccc2[nH]ccc12)c1ccc(C(=O)N[C@@H](CNC(=O)c2ccccc2)C(=O)O)c(Cl)c1", "CLASS_LABEL": "Satisfied"}
{"COMPOUND": "O=C(NCc1cccc(O)c1)c1ccc(C(=O)N[C@@H](CNC(=O)c2cc(F)c(F)cc2F)C(=O)O)c(Cl)c1", "CLASS_LABEL": "Satisfied"}
{"COMPOUND": "O=C(N[C@@H](CNC(=O)C1CCCCC1)C(=O)O)c1c(Cl)cccc1Cl", "CLASS_LABEL": "Not satisfied"}
{"COMPOUND": "COc1ccc(C(=O)NC[C@H](NC(=O)c2c(Cl)cc(C(=O)NCc3cccc(O)c3)cc2Cl)C(=O)O)cc1O", "CLASS_LABEL": "Satisfied"}
{"COMPOUND": "N[C@H](CC(=O)O)C(=O)NC[C@H](NC(=O)c1ccc(C(=O)NCc2cccc(O)c2)cc1Cl)C(=O)O", "CLASS_LABEL": "Not satisfied"}
{"COMPOUND": "O=C(CC1CCCCC1)NC[C@H](NC(=O)c1ccc(C(=O)NCc2cccc(O)c2)cc1Cl)C(=O)O", "CLASS_LABEL": "Satisfied"}
{"COMPOUND": "O=C(O)CCCC(=O)NC[C@H](NC(=O)c1ccc(C(=O)NCc2cccc(O)c2)cc1Cl)C(=O)O", "CLASS_LABEL": "Not satisfied"}
{"COMPOUND": "O=C(/C=C/c1cccs1)NC[C@H](NC(=O)c1ccc(C(=O)NCc2cccc(O)c2)cc1Cl)C(=O)O", "CLASS_LABEL": "Satisfied"}
